Ref: PubChem BioAssay AID1259407

System: CCRIS mutagenicity, Ames/micronucleus/aberration tests
method summary: CCRIS mutagenicity studies
condition label: Test System: AMES SALMONELLA TYPHIMURIUM; Strain/Indicator: TA100; Metabolic Activation: S-9; Method: STANDARD PLATE
Active and inactive are the calls of the source. How the calls were made is not given here.
Possible outcomes: yes (1) (active), no (0) (inactive)

compound structure string	category label
Cc1ccc2c(c1)c(=NC(=O)c1ccccc1[N+](=O)[O-])sn2C(=O)c1ccccc1[N+](=O)[O-]	no (0)
COc1cccc(/C=C/c2ccc([N+](=O)[O-])cc2)c1	yes (1)
O=[N+]([O-])c1ccc(/C=C/c2cccc(Cl)c2)cc1	yes (1)
Oc1cccc(O)c1O	yes (1)
CNc1snc2ccccc12	no (0)
COc1cc(Oc2ccc(Cl)cc2Cl)ccc1[N+](=O)[O-]	no (0)

====

Test system: CCRIS mutagenicity, Ames/micronucleus/aberration tests
method summary: CCRIS mutagenicity studies
condition label: Test System: AMES SALMONELLA TYPHIMURIUM; Strain/Indicator: TA100; Metabolic Activation: S-9
Text: The CCRIS database contains chemical records with carcinogenicity, mutagenicity, tumor promotion, and tumor inhibition test results. It was developed by the National Cancer Institute (NCI). Data are derived from studies cited in primary journals, current awareness tools, NCI reports, and other sources. Test results have been reviewed by experts in carcinogenesis and mutagenesis. CCRIS provides historical information from the years 1985 - 2011. It is no longer updated. […]
Activity calls are given as the source filed them. How the calls were made is not given here.
Possible outcomes: 1.0 for active, 0.0 for inactive

compound	category label
NC(=O)OC[C@@H]1[C@H](NC(=O)/C(=N\OCC(=O)O)c2csc(N)n2)C(=O)N1S(=O)(=O)O	0.0
c1cc2ccc3nc4ccccc4c4ccc(c1)c2c34	1.0
CCN(CC)CC#CCOC(=O)C(O)(c1ccccc1)C1CCCCC1 (stereo not given)	0.0
O=C(O)[C@@H]1Cc2c([nH]c3ccccc23)[C@@H]([C@H]2CCNC2=S)N1	0.0
CC(=O)N[C@@H]1[C@@H](O[C@@H]2O[C@H](C(=O)O)[C@@H](O[C@@H]3O[C@H](CO)[C@@H](O)[C@H](O[C@@H]4O[C@H](C(=O)O)[C@@H](O)[C@H](O)[C@H]4O)[C@H]3NC(C)=O)[C@H](O)[C@H]2O)[C@H](O)[C@@H](CO)O[C@H]1O	0.0

====

Tested on: CCRIS mutagenicity, Ames/micronucleus/aberration tests
method summary: CCRIS mutagenicity studies
condition label: Test System: E. COLI; Strain/Indicator: WP2 (HCR); Metabolic Activation: S-9; Method: STANDARD PLATE
The source made the active and inactive calls. The rule behind the calls is not given here.
Possible outcomes: active, inactive

compound structure string	category label
CC(=O)O[C@@H]1C(=O)O[C@H]2[C@@H]1OC(=O)[C@@H]2OC(C)=O	inactive
COC1(O[C@H]2CC[C@H]3[C@@H]4CC[C@H]5C[C@@H]6S[C@@H]6C[C@]5(C)[C@H]4CC[C@]23C)CCCC1	inactive
CCCCCCNC(=O)n1cc(F)c(=O)[nH]c1=O	inactive
O[C@@H]([C@H](O)[C@H](O)CBr)[C@H](O)CBr	active
O=c1[nH]c(=O)n([C@H]2C[C@H](O)[C@@H](CO)O2)cc1Br	inactive

====

Tested on: CCRIS mutagenicity, Ames/micronucleus/aberration tests
method summary: CCRIS mutagenicity studies
condition label: Test System: AMES SALMONELLA TYPHIMURIUM; Strain/Indicator: TA98(NR); Metabolic Activation: NONE; Method: STANDARD PLATE
The source made the active and inactive calls. No rule for the calls is given here.
Possible outcomes: True (active), False (inactive)

compound	category label
O=c1oc2ccc([N+](=O)[O-])cc2c2ccccc12	True
O=Cc1ccc([N+](=O)[O-])o1	True
COc1cccc(/C=C/c2ccc([N+](=O)[O-])cc2)c1	True
O=Nc1ccc2ccc3cccc4ccc1c2c34	True
O=[N+]([O-])c1cc([N+](=O)[O-])c2cccc3c2c1-c1ccccc1-3	True
O=[N+]([O-])c1ccc2c3c(cccc13)-c1ccccc1-2	True
CN(C)CCCNc1c2ccccc2nc2ccc([N+](=O)[O-])cc12	True
O=[N+]([O-])c1ccc2c(ccc3cc([N+](=O)[O-])ccc32)c1	True
O=[N+]([O-])c1ccc2c(ccc3ccccc32)c1	True
O=[N+]([O-])c1ccc(Sc2ccccc2)cc1	False
Nc1ccc(Cl)cc1[N+](=O)[O-]	False
O=[N+]([O-])c1ccc2c(c1)c([N+](=O)[O-])cc1ccccc12	True
O=CN(O)c1ccc([N+](=O)[O-])cc1	True
COC(=O)C1Cc2c([nH]c3ccc([N+](=O)[O-])cc23)C(C)N1N=O (centres undefined)	True

====

System: CCRIS mutagenicity, Ames/micronucleus/aberration tests
method summary: CCRIS mutagenicity studies
condition label: Test System: AMES SALMONELLA TYPHIMURIUM; Strain/Indicator: TA98 (NR); Metabolic Activation: NONE; Method: STANDARD PLATE
The source made the active and inactive calls. How the calls were made is not given here.
Possible outcomes: active, inactive

compound structure string	category label
O=Nc1ccc2ccc3cccc4ccc1c2c34	active
O=Nc1c2ccccc2c2ccc3cccc4ccc1c2c43	active
O=[N+]([O-])c1ccc(/C=C/c2cccc(Cl)c2)cc1	active
Nc1ccc(/C=C/c2ccc([N+](=O)[O-])cc2)cc1	inactive

====

System: CCRIS mutagenicity, Ames/micronucleus/aberration tests
method summary: CCRIS mutagenicity studies
condition label: Test System: AMES SALMONELLA TYPHIMURIUM; Strain/Indicator: TA1537; Metabolic Activation: NONE; Method: STANDARD PLATE
The source made the active and inactive calls. No rule for the calls is given here.
Possible outcomes: yes (active), no (inactive)

molecule	category label
O=C1c2ccccc2C(=O)c2c(O)c(O)cc(O)c21	yes
CC(C)(Oc1ccc(C(=O)c2ccc(Cl)cc2)cc1)C(=O)O	no
O=C([O-])[C@H](O)[C@@H](O)[C@H](O)[C@H](O)CO.O=C([O-])[C@H](O)[C@@H](O)[C@H](O)[C@H](O)CO.[Mn+2]	no
CCCCCCNC(=O)n1cc(F)c(=O)[nH]c1=O	no
CS(=O)(=O)Nc1ccc(Nc2c3ccccc3nc3ccc(N=[N+]=[N-])cc23)cc1	yes
Clc1cc(Cl)c(Cl)cc1Cl	no
O=C1C=C[C@]2(O)c3c(ccc(O)c31)-c1ccc(O)c3c1[C@H]2C1OC1C3=O (stereo partly specified)	yes
CC(C)c1c(C(=O)Nc2ccccc2)c(-c2ccccc2)c(-c2ccc(F)cc2)n1CC[C@@H](O)C[C@@H](O)CC(=O)O	no
FC(Cl)C(F)(F)C(F)(F)Cl (stereo unspecified)	no
Cc1ccc(C(O)(P(=O)(O)O)P(=O)(O)O)cc1N(CCCl)CCCl	no
Cc1cc(O)ccc1Cl	no
Nc1ncc([N+](=O)[O-])s1	no
O=[N+]([O-])c1c(-c2ccc(Cl)cc2)nc2n1CCS2	yes
CCOC(=O)NNc1nncc2ccccc12	no
O=c1oc2ccc([N+](=O)[O-])cc2c2ccccc12	yes
CC(C)[C@@H]1CC[C@@H](C)C[C@H]1O	no
CCCCC=O	no
COC(COC(N)=O)C1=C(N2CC2)C(=O)C(C)=C(N2CC2)C1=O (stereo unspecified)	yes
c1ccccc1	no
Cc1cc([N+](=O)[O-])c(C)c2c1[nH]c1ccc(O)cc12	yes
NCc1cccc(CN)c1	no
C[n+]1c2ccccc2nc2ccccc21	yes
Nc1ccc(O)c([N+](=O)[O-])c1	no
C=CCc1ccc(O)cc1	no
C/C=C1\CC2C=CC1C2 (stereo unspecified)	no
CN(C)C(=O)c1nc2n(n1)-c1ccc(Cl)cc1C(c1ccccc1Cl)=NC2	no

====

Test system: CCRIS mutagenicity, Ames/micronucleus/aberration tests
method summary: CCRIS mutagenicity studies
condition label: Test System: Ames Salmonella typhimurium; Strain/Indicator: TA98; Metabolic Activation: None; Method: Plate incorporation
The source made the active and inactive calls. How the calls were made is not given here.
Possible outcomes: active, inactive

molecule	category label
CCNC(=O)NC(=O)/C(C#N)=N/OC	inactive
CC1(c2ccc(Oc3ccccc3)cc2)OC(=O)N(Nc2ccccc2)C1=O (stereo unspecified)	inactive
c1ccc2c(c1)ccc1ccc3ccsc3c12	active
C=C(C)CN(CC)c1c([N+](=O)[O-])cc(C(F)(F)F)cc1[N+](=O)[O-]	inactive
CCCCOC(=O)[C@@H](C)Oc1ccc(Oc2ccc(C#N)cc2F)cc1	inactive
CC1(C)C(C=C(Cl)Cl)C1C(=O)OC(C#N)c1ccc(F)c(Oc2ccccc2)c1 (stereo unspecified)	inactive

====

Tested on: CCRIS mutagenicity, Ames/micronucleus/aberration tests
method summary: CCRIS mutagenicity studies
condition label: Test System: AMES SALMONELLA TYPHIMURIUM; Strain/Indicator: TA1535; Metabolic Activation: NONE; Method: STANDARD PLATE
Calls of active or inactive are those of the source. How the calls were made is not given here.
Possible outcomes: active, inactive

molecule	measured on	category label
O=C1c2ccccc2CCc2ccccc21	CCRIS mutagenicity, Ames/micronucleus/aberration tests	inactive
NCc1cccc(CN)c1	CCRIS mutagenicity, Ames/micronucleus/aberration tests	inactive
CCN(CC)CCCC(C)Nc1c2ccc(Cl)cc2nc2ccc(OC)cc12 (centres undefined)	CCRIS mutagenicity, Ames/micronucleus/aberration tests	inactive
C=CCc1ccc(O)cc1	CCRIS mutagenicity, Ames/micronucleus/aberration tests	inactive
CCc1cccc2c(CCO)c[nH]c12	CCRIS mutagenicity, Ames/micronucleus/aberration tests	inactive
CCCN(N=O)C(N)=O	CCRIS mutagenicity, Ames/micronucleus/aberration tests	active
CCOC(=O)c1ccccc1C(=O)OCC	CCRIS mutagenicity, Ames/micronucleus/aberration tests	active
CN(CCO)C(=O)Nc1ccccc1	CCRIS mutagenicity, Ames/micronucleus/aberration tests	inactive
CCc1cccc2c3c([nH]c12)C(CC)(CC(=O)O)OCC3 (centres undefined)	CCRIS mutagenicity, Ames/micronucleus/aberration tests	inactive
CC(C)c1c(C(=O)Nc2ccccc2)c(-c2ccccc2)c(-c2ccc(F)cc2)n1CC[C@@H](O)C[C@@H](O)CC(=O)O	CCRIS mutagenicity, Ames/micronucleus/aberration tests	inactive
N#Cc1ccccc1	CCRIS mutagenicity, Ames/micronucleus/aberration tests	inactive
CN(Cc1ccc(C#N)cc1)N=O	CCRIS mutagenicity, Ames/micronucleus/aberration tests	inactive
CN(C)C(=O)Oc1ccc[n+](C)c1	CCRIS mutagenicity, Ames/micronucleus/aberration tests	inactive
S=C1NCCN1	CCRIS mutagenicity, Ames/micronucleus/aberration tests	active
